# Test system: Human A2780 cell line
# Procedure details: MTT cytotoxicity assay, cisplatin-sensitive ovarian A2780 cells, with or without BSO
# Type: cell-based
# Condition: without BSO; 2 hr platinum exposure, MTT after 5 days; read-out: IC50 (μM) vs. A2780 Control (Without BSO)
The following compounds are shown together with reported IC50 values.
Endpoint: IC50 (µM)

Sample smiles	Readout units	Reported
[NH2][Pt]([OH])([OH])([Cl])([Cl])[NH]C1CCCCC1	µM	3.55
[NH2][Pt]([Cl])([Cl])[NH]C1CCC1	µM	1.03
[NH2][Pt]([Cl])([Cl])[NH]C1CCCCCCC1	µM	0.77
